# Test system: Mus musculus
# Experimental protocol: Reversal of haloperidol-induced catalepsy in po dosed BALB/c mouse measured 1 hr post dose
# Format: functional
Measured property: ED50 (mg/kg)
Answers are plain numbers, in mg/kg.

| Compound | Study target | Display unit | ED50 |
| --- | --- | --- | --- |
| CN1CCN(C(=O)c2ccc3c(c2)-c2nc(N)nc(-c4ccccc4)c2C3=O)CC1 | Mus musculus | mg/kg | 0.4 |
| Nc1nc(-c2ccccc2)c2c(n1)-c1cc(CN3CCCC3)ccc1C2=O | Mus musculus | mg/kg | 0.2 |
| CC1CC[C@@H](C)N1Cc1ccc2c(c1)-c1nc(N)nc(-c3ccccc3)c1C2=O (mixture of isomers) | Mus musculus | mg/kg | 3.2 |

Let's switch to this compound now.
### Prompt Query for Mus musculus: what ED50 does the record show for Nc1nc(-c2ccccc2)c2c(n1)-c1cc(CN3C4CCC3CC4)ccc1C2=O ?
### Response 1

---

# Experimental protocol: Half life in BALB/c mouse at 10 mg/kg, po administered as single dose
# Format: ADME, organism-based
# Parameters: dose 10 mg/kg, route oral
# Measurement conditions: in vivo
Measured property: half-life

| Chemical structure | half-life |
| --- | --- |
| CN1CCN(C(=O)c2ccc3c(c2)-c2nc(N)nc(-c4ccccc4)c2C3=O)CC1 | 228 min |

Let's switch to this molecule now.
### Prompt Data request, read-out half-life, for Nc1nc(-c2ccccc2)c2c(n1)-c1cc(OCCN3CCOCC3)ccc1C2=O
### Response 66 min

---

# Experimental protocol: Volume of distribution at steady state in cynomolgus monkey at 1 mg/kg, iv administered as single dose
# Format: ADME, organism-based, Macaca fascicularis
# Parameters: dose 1 mg/kg, route intravenous
# Measurement conditions: in vivo, read-out: Vdss
Measured property: Vd (L/kg)
Numbers only, in L/kg.

### Prompt Data request, read-out Vd, for Nc1nc(-c2ccccc2)c2c(n1)-c1cc(CN3CCCC3)ccc1C2=O
### Response 7

---

Could you please report measured Vd for the items listed next?
# Experimental protocol: Volume of distribution at steady state in cynomolgus monkey at 2 mg/kg, iv administered as single dose
# Format: ADME, organism-based, Macaca fascicularis
# Parameters: dose 2 mg/kg, route intravenous
# Measurement conditions: in vivo, read-out: Vdss
Numbers only, in L/kg.

| Chemical structure | Vd, L/kg |
| --- | --- |
| Nc1nc(-c2ccccc2)c2c(n1)-c1cc(OCCN3CCOCC3)ccc1C2=O | 2 |

Let's switch to this compound now.
### Prompt Data request, read-out Vd, for CN1CCN(C(=O)c2ccc3c(c2)-c2nc(N)nc(-c4ccccc4)c2C3=O)CC1
### Response 4

---

# Experimental protocol: Clearance in BALB/c mouse at 2 mg/kg, iv and 10 mg/kg, po administered as single dose
# Format: ADME, organism-based
# Measurement conditions: in vivo
Could you please report measured clearance for the items listed next?
# do not omit the unit; it follows the number

Worked examples follow.
| Chemical structure | Result |
| --- | --- |
| Nc1nc(-c2ccccc2)c2c(n1)-c1cc(CN3CCCC3)ccc1C2=O | 440 mL/min/kg |
| Nc1nc(-c2ccccc2)c2c(n1)-c1cc(OCCN3CCOCC3)ccc1C2=O | 97 mL/min/kg |

Let's switch to this compound now.
### Prompt Data request, read-out clearance, for CN1CCN(C(=O)c2ccc3c(c2)-c2nc(N)nc(-c4ccccc4)c2C3=O)CC1
### Response 37 mL/min/kg
